Tested on: 636577-100-R-J1-PDC complex spheroid viability
Assay: Anticancer human tumor 636577-100-R-J1-PDC patient-derived endometrial adenocarcinoma cell line growth inhibition [GQUAD]
Conditions: second compound 1 µM; first compound 0.00316 µM; stronger effect = lower value
viability, T/C values by entry
# unit: % | format: bare number

Known results for compounds:
Cc1[nH]c2ccccc2c1CCNCc1ccc(/C=C/C(=O)NO)cc1 + Cc1[nH]c2ccc(F)cc2c1-c1nc2c3cccnc3c3ncccc3c2[nH]1 :: 59.6
CC[C@@]1(O)C(=O)OCc2c1cc1n(c2=O)Cc2cc3c(CN(C)C)c(O)ccc3nc2-1 + CN(C)c1ccc(Nc2c3ccc(NC(=O)CCN4CCCC4)cc3nc3cc(NC(=O)CCN4CCCC4)ccc23)cc1 :: 96.1

Now examine the next entry.
Prompt line: Form field: reported viability, T/C of Cn1ncnc1[C@H]1c2n[nH]c(=O)c3cc(F)cc(c23)N[C@@H]1c1ccc(F)cc1 + Cc1cnc(CNC(=O)c2c(=O)c3ccc(N4CCCN(C)CC4)nc3n3c2sc2ccccc23)cn1
Response line: 19

====

Tested on: 636577-100-R-J1-PDC complex spheroid viability
Assay: Anticancer human tumor 636577-100-R-J1-PDC cell line growth inhibition [GQUAD];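 also: luminescence signal used as a proxy for viable cells; viability read after seven days of drug exposure; 100% = DMSO vehicle control wells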
Conditions: second compound 3.16 µM; first compound 0.1 µM; stronger effect = lower value
# note: exactly 40% is not below, so it is NOT MET; use MET for viability, T/C strictly under it

Some entries whose results are on file:
C=CC(=O)N1CCN(c2nc(=O)n(-c3c(C)ccnc3C(C)C)c3nc(-c4c(O)cccc4F)c(F)cc23)C(C)C1 (stereo not given) + CN(C)c1ccc(Nc2c3ccc(NC(=O)CCN4CCCC4)cc3nc3cc(NC(=O)CCN4CCCC4)ccc23)cc1 :: NOT MET
CCCS(=O)(=O)Nc1ccc(F)c(C(=O)c2c[nH]c3ncc(-c4ccc(Cl)cc4)cc23)c1F + Cc1cnc(CNC(=O)c2c(=O)c3ccc(N4CCCN(C)CC4)nc3n3c2sc2ccccc23)cn1 :: MET
CC(C)(O)C1CCC(Nc2ccc3ncc(-c4cccc(C(F)(F)F)c4)n3n2)CC1 (stereo not given) + Cc1cnc(CNC(=O)c2c(=O)c3ccc(N4CCCN(C)CC4)nc3n3c2sc2ccccc23)cn1 :: MET

Now consider the entry below.
Prompt line: Input COc1ncnc(C2CC2)c1-c1ncc2cnn(Cc3ccc(-c4nc(C(F)(F)F)cn4C(C)C)cc3)c2n1 + Cc1[nH]c2ccc(F)cc2c1-c1nc2c3cccnc3c3ncccc3c2[nH]1 ; condition: viability, T/C strictly below 40%. Does it hold?
Response line: MET

====

System: 636577-100-R-J1-PDC complex spheroid viability
Test: Anticancer human tumor 636577-100-R-J1-PDC cell line growth inhibition [GQUAD];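 also: luminescence signal used as a proxy for viable cells; viability read after seven days of drug exposure; 100% = DMSO vehicle control wells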
Conditions: second compound 1 µM; first compound 0.1 µM; stronger effect = lower value
metric_name: viability, T/C (%)
Report as a plain number; the unit % is understood.

Here's what some known entries look like.
CC1COCCN1c1cc(C2(O)CC3CCC(C2)O3)c2cnn(-c3ccn[nH]3)c2n1 (configuration not stated) + Cc1cnc(CNC(=O)c2c(=O)c3ccc(N4CCCN(C)CC4)nc3n3c2sc2ccccc23)cn1 :: 14.2
C=CC(=O)N1CCN(c2nc(=O)n(-c3c(C)ccnc3C(C)C)c3nc(-c4c(O)cccc4F)c(F)cc23)C(C)C1 (configuration not stated) + Cc1cnc(CNC(=O)c2c(=O)c3ccc(N4CCCN(C)CC4)nc3n3c2sc2ccccc23)cn1 :: 22.8
COc1ncnc(C2CC2)c1-c1ncc2cnn(Cc3ccc(-c4nc(C(F)(F)F)cn4C(C)C)cc3)c2n1 + Cc1cnc(CNC(=O)c2c(=O)c3ccc(N4CCCN(C)CC4)nc3n3c2sc2ccccc23)cn1 :: 18.5
CC1COCCN1c1cc(C2(S(C)(=N)=O)CC2)nc(-c2ccnc3[nH]ccc23)n1 (configuration not stated) + Cc1[nH]c2ccc(F)cc2c1-c1nc2c3cccnc3c3ncccc3c2[nH]1 :: 77.8

Prompt line: Any idea what its viability, T/C is? The compound is C=CCn1c(=O)c2cnc(Nc3ccc(N4CCN(C)CC4)cc3)nc2n1-c1cccc(C(C)(C)O)n1 + Cc1[nH]c2ccc(F)cc2c1-c1nc2c3cccnc3c3ncccc3c2[nH]1
Response line: 45.3

Prompt line: Reported viability, T/C for CC(C)n1c(=O)n(C)c2cnc3cc(F)c(-c4ccc(OCCCN5CCCCC5)nc4)cc3c21 + CN(C)c1ccc(Nc2c3ccc(NC(=O)CCN4CCCC4)cc3nc3cc(NC(=O)CCN4CCCC4)ccc23)cc1 : what is it?
Response line: 67.8

Prompt line: So what's the measured viability, T/C for this one? C=CCn1c(=O)c2cnc(Nc3ccc(N4CCN(C)CC4)cc3)nc2n1-c1cccc(C(C)(C)O)n1 + CN(C)c1ccc(Nc2c3ccc(NC(=O)CCN4CCCC4)cc3nc3cc(NC(=O)CCN4CCCC4)ccc23)cc1
Response line: 63

====

Tested on: 636577-100-R-J1-PDC complex spheroid viability
Assay: Anticancer human tumor 636577-100-R-J1-PDC cell line growth inhibition [GQUAD];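 also: luminescence signal used as a proxy for viable cells; viability read after seven days of drug exposure; 100% = DMSO vehicle control wells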
Conditions: second compound 1 µM; first compound 0.1 µM; stronger effect = lower value
metric_name: viability, T/C (%)
Supply the numeric figure in %, leaving out any unit text.

Some solved cases for reference:
C#Cc1c(F)ccc2cc(O)cc(-c3ncc4c(N5CC6CCC(C5)N6)nc(OCC56CCCN5CC(F)C6)nc4c3F)c12 (centres undefined) + Cc1[nH]c2ccc(F)cc2c1-c1nc2c3cccnc3c3ncccc3c2[nH]1 :: 78.2
C#Cc1c(F)ccc2cc(O)cc(-c3ncc4c(N5CC6CCC(C5)N6)nc(OCC56CCCN5CC(F)C6)nc4c3F)c12 (centres undefined) + Cc1cnc(CNC(=O)c2c(=O)c3ccc(N4CCCN(C)CC4)nc3n3c2sc2ccccc23)cn1 :: 19
CC(=O)O[C@H]1C(=O)[C@@]2(C)[C@H]([C@H](OC(=O)c3ccccc3)[C@]3(O)C[C@H](OC(=O)[C@H](O)[C@@H](NC(=O)c4ccccc4)c4ccccc4)C(C)=C1C3(C)C)[C@]1(OC(C)=O)CO[C@@H]1C[C@@H]2O + CN(C)c1ccc(Nc2c3ccc(NC(=O)CCN4CCCC4)cc3nc3cc(NC(=O)CCN4CCCC4)ccc23)cc1 :: 12.8

Prompt line: Reported viability, T/C for COc1ncnc(C2CC2)c1-c1ncc2cnn(Cc3ccc(-c4nc(C(F)(F)F)cn4C(C)C)cc3)c2n1 + CN(C)c1ccc(Nc2c3ccc(NC(=O)CCN4CCCC4)cc3nc3cc(NC(=O)CCN4CCCC4)ccc23)cc1 : what is it?
Response line: 52.5

Prompt line: Requested read-out: viability, T/C. Entry: CC(C)(O)C1CCC(Nc2ccc3ncc(-c4cccc(C(F)(F)F)c4)n3n2)CC1 (centres undefined) + Cc1cnc(CNC(=O)c2c(=O)c3ccc(N4CCCN(C)CC4)nc3n3c2sc2ccccc23)cn1
Response line: 27.1

Prompt line: Need viability, T/C, item CC(=O)O[C@H]1C(=O)[C@@]2(C)[C@H]([C@H](OC(=O)c3ccccc3)[C@]3(O)C[C@H](OC(=O)[C@H](O)[C@@H](NC(=O)c4ccccc4)c4ccccc4)C(C)=C1C3(C)C)[C@]1(OC(C)=O)CO[C@@H]1C[C@@H]2O + Cc1[nH]c2ccc(F)cc2c1-c1nc2c3cccnc3c3ncccc3c2[nH]1
Response line: 12

Prompt line: # input compound: CCCS(=O)(=O)Nc1ccc(F)c(C(=O)c2c[nH]c3ncc(-c4ccc(Cl)cc4)cc23)c1F + Cc1cnc(CNC(=O)c2c(=O)c3ccc(N4CCCN(C)CC4)nc3n3c2sc2ccccc23)cn1 ; wanted: its viability, T/C
Response line: 24.2

====

Tested on: 636577-100-R-J1-PDC complex spheroid viability
Assay: Anticancer human tumor 636577-100-R-J1-PDC cell line growth inhibition [GQUAD];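 also: luminescence signal used as a proxy for viable cells; viability read after seven days of drug exposure; 100% = DMSO vehicle control wells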
Settings: second compound 0.1 µM; first compound 3.16 µM; stronger effect = lower value
Consider the following compounds and their measured viability, T/C readings.

Below are worked cases with known answers.
CC(C)(O)C1CCC(Nc2ccc3ncc(-c4cccc(C(F)(F)F)c4)n3n2)CC1 (stereo not given) + CN(C)c1ccc(Nc2c3ccc(NC(=O)CCN4CCCC4)cc3nc3cc(NC(=O)CCN4CCCC4)ccc23)cc1 :: 30%
O=C(c1cc(Cc2n[nH]c(=O)c3ccccc23)ccc1F)N1CCN(C(=O)C2CC2)CC1 + Cc1[nH]c2ccc(F)cc2c1-c1nc2c3cccnc3c3ncccc3c2[nH]1 :: 67.6%
C#Cc1c(F)ccc2cc(O)cc(-c3ncc4c(N5CC6CCC(C5)N6)nc(OCC56CCCN5CC(F)C6)nc4c3F)c12 (stereo not given) + Cc1cnc(CNC(=O)c2c(=O)c3ccc(N4CCCN(C)CC4)nc3n3c2sc2ccccc23)cn1 :: 22.5%
Nc1ccn(C2OC(CO)C(O)C2(F)F)c(=O)n1 (stereo not given) + Cc1cnc(CNC(=O)c2c(=O)c3ccc(N4CCCN(C)CC4)nc3n3c2sc2ccccc23)cn1 :: 16.2%

Now turn to the next compound.
Prompt line: Recorded viability, T/C of CC1COCCN1c1cc(C2(O)CC3CCC(C2)O3)c2cnn(-c3ccn[nH]3)c2n1 (stereo not given) + CN(C)c1ccc(Nc2c3ccc(NC(=O)CCN4CCCC4)cc3nc3cc(NC(=O)CCN4CCCC4)ccc23)cc1 , please.
Response line: 2.93%

The values you see were collected from PubChem BioAssay AID2060504.
